Data origin, for the record: ChEMBL document CHEMBL3784963

Assay: Cytotoxicity against human JeKo1 cells assessed as growth inhibition after 72 hrs by MTT assay
Format: functional, cell-based
Conditions: JeKo-1, 72 h
pIC50: −log10 of the molar value.
The threshold is inclusive: pIC50 of exactly 5 counts as 1.0; values below receive 0.0.

API: above_or_equal(metric=pIC50, cutoff=5) for item CCOC(=O)[C@]1(C)CCC[C@@]2(C)[C@@H]3CC[C@@]4(C)C[C@]3(CC[C@@H]21)C[C@H]4NC(=S)NNC(=O)c1ccccc1
0.0

API: above_or_equal(metric=pIC50, cutoff=5) for item CCOC(=O)[C@]1(C)CCC[C@@]2(C)[C@@H]3CC[C@@]4(C)C[C@]3(CC[C@@H]21)[C@H](CO)[C@H]4NC(=S)Nc1ccccc1C
0.0

API: above_or_equal(metric=pIC50, cutoff=5) for item CCOC(=O)[C@]1(C)CCC[C@@]2(C)[C@@H]3CC[C@@]4(C)C[C@]3(CC[C@@H]21)[C@H](CO)[C@H]4NC(C)=O
0.0

API: above_or_equal(metric=pIC50, cutoff=5) for item CCOC(=O)[C@]1(C)CCC[C@@]2(C)[C@@H]3CC[C@@]4(C)C[C@]3(CC[C@@H]21)[C@H](CO)[C@H]4NC(=S)Nc1cccc(Cl)c1
0.0

API: above_or_equal(metric=pIC50, cutoff=5) for item CCOC(=O)[C@]1(C)CCC[C@@]2(C)[C@@H]3CC[C@@]4(C)C[C@]3(CC[C@@H]21)C[C@H]4N=C=S
0.0

API: above_or_equal(metric=pIC50, cutoff=5) for item CCOC(=O)[C@]1(C)CCC[C@@]2(C)[C@@H]3CC[C@@]4(C)C[C@]3(CC[C@@H]21)C[C@H]4NC(=S)Nc1ccccc1
0.0

API: above_or_equal(metric=pIC50, cutoff=5) for item CCOC(=O)[C@]1(C)CCC[C@@]2(C)[C@@H]3CC[C@@]4(C)C[C@]3(CC[C@@H]21)[C@H](CO)[C@H]4NC(=S)Nc1c(C)cccc1C
0.0

API: above_or_equal(metric=pIC50, cutoff=5) for item CCOC(=O)[C@]1(C)CCC[C@@]2(C)[C@@H]3CC[C@@]4(C)C[C@]3(CC[C@@H]21)[C@H](CO)[C@H]4NC(=S)Nc1ccc(Cl)cc1Cl
0.0

API: above_or_equal(metric=pIC50, cutoff=5) for item CCOC(=O)[C@]1(C)CCC[C@@]2(C)[C@@H]3CC[C@@]4(C)C[C@]3(CC[C@@H]21)C[C@H]4N
1.0

API: above_or_equal(metric=pIC50, cutoff=5) for item CCOC(=O)[C@]1(C)CCC[C@@]2(C)[C@@H]3CC[C@@]4(C)C[C@]3(CC[C@@H]21)[C@H](CO)[C@H]4NC(=S)Nc1ccccc1Cl
0.0

API: above_or_equal(metric=pIC50, cutoff=5) for item CCOC(=O)[C@]1(C)CCC[C@@]2(C)[C@@H]3CC[C@@]4(C)C[C@]3(CC[C@@H]21)[C@H](COC(C)=O)[C@H]4NC(C)=O
0.0

API: above_or_equal(metric=pIC50, cutoff=5) for item CCOC(=O)[C@]1(C)CCC[C@@]2(C)[C@@H]3CC[C@@]4(C)C[C@]3(CC[C@@H]21)[C@H](CO)[C@H]4NC(=S)Nc1ccccc1
0.0

API: above_or_equal(metric=pIC50, cutoff=5) for item CCOC(=O)[C@]1(C)CCC[C@@]2(C)[C@@H]3CC[C@@]4(C)C[C@]3(CC[C@@H]21)[C@H](CO)[C@H]4NC(=S)Nc1cccc(F)c1
0.0

API: above_or_equal(metric=pIC50, cutoff=5) for item CCOC(=O)[C@]1(C)CCC[C@@]2(C)[C@@H]3CC[C@@]4(C)C[C@]3(CC[C@@H]21)[C@H](CO)[C@H]4NC(=S)Nc1ccc(OC)cc1
0.0

API: above_or_equal(metric=pIC50, cutoff=5) for item CCOC(=O)[C@]1(C)CCC[C@@]2(C)[C@@H]3CC[C@@]4(C)C[C@]3(CC[C@@H]21)[C@H](CO)[C@@H]4N
1.0

API: above_or_equal(metric=pIC50, cutoff=5) for item CCOC(=O)[C@]1(C)CCC[C@@]2(C)[C@@H]3CC[C@@]4(C)C[C@]3(CC[C@@H]21)[C@H](CO)[C@H]4NC(=S)Nc1ccc(Br)cc1
1.0

API: above_or_equal(metric=pIC50, cutoff=5) for item CCOC(=O)[C@]1(C)CCC[C@@]2(C)[C@@H]3CC[C@@]4(C)C[C@]3(CC[C@@H]21)[C@H](CO)[C@H]4NC(=S)Nc1cccc(OC)c1
0.0

API: above_or_equal(metric=pIC50, cutoff=5) for item CCOC(=O)[C@]1(C)CCC[C@@]2(C)[C@@H]3CC[C@@]4(C)C[C@]3(CC[C@@H]21)[C@H](CO)[C@H]4NC(=S)Nc1ccccc1Br
0.0

API: above_or_equal(metric=pIC50, cutoff=5) for item CCOC(=O)[C@]1(C)CCC[C@@]2(C)[C@@H]3CC[C@@]4(C)C[C@]3(CC[C@@H]21)C[C@H]4NC(=S)N[C@@H](C)c1ccccc1
0.0

API: above_or_equal(metric=pIC50, cutoff=5) for item CCOC(=O)[C@]1(C)CCC[C@@]2(C)[C@@H]3CC[C@@]4(C)C[C@]3(CC[C@@H]21)[C@H](CO)[C@H]4NC(=S)Nc1ccc([N+](=O)[O-])cc1
1.0

API: above_or_equal(metric=pIC50, cutoff=5) for item CCOC(=O)[C@]1(C)CCC[C@@]2(C)[C@@H]3CC[C@@]4(C)C[C@]3(CC[C@@H]21)[C@H](CO)[C@H]4NC(=S)Nc1ccccc1OC
0.0

API: above_or_equal(metric=pIC50, cutoff=5) for item C=C[C@]12CC[C@H]3[C@@](C)(CCC[C@@]3(C)C(=O)OCC)[C@@H]1CC[C@](C)(CN=C=S)C2
1.0

API: above_or_equal(metric=pIC50, cutoff=5) for item CCOC(=O)[C@]1(C)CCC[C@@]2(C)[C@@H]3CC[C@@]4(C)C[C@]3(CC[C@@H]21)C[C@H]4NC(=S)NC1CCCCC1
0.0

API: above_or_equal(metric=pIC50, cutoff=5) for item CCOC(=O)[C@]1(C)CCC[C@@]2(C)[C@@H]3CC[C@@]4(C)C[C@]3(CC[C@@H]21)[C@H](CO)[C@H]4NC(=S)Nc1ccccc1[N+](=O)[O-]
0.0

API: above_or_equal(metric=pIC50, cutoff=5) for item CCOC(=O)[C@]1(C)CCC[C@@]2(C)[C@@H]3CC[C@@]4(C)C[C@]3(CC[C@@H]21)[C@H](CO)[C@H]4NC(=S)Nc1cccc(C)c1
0.0
